Measured IC50 values are reported for all entries that follow.
# method-summary: DNDI: Cytotoxicity against L-6 rat myoblasts from skeletal muscle cells
# experimental-parameters: L6 rat skeletal muscle myoblast cells, IC50

Some entries whose results are on file:
> print(dat)
                                   molecule  quantity.kind       val
1  COc1ccc(CNC(c2ccc(Cl)cc2)c2cccnc2)cc1 (stereo unspecified)           IC50  > 100 µM
2  CCNC(=O)N1CCN(C(c2ccc(Cl)cc2)c2cncnc2)CC1 (stereo unspecified)           IC50  > 100 µM
3  Cc1nc(C)c(C(=O)NC2CCN(C(c3ccc(C(F)(F)F)cc3)c3cccnc3)CC2)s1 (stereo unspecified)           IC50   55.7 µM

Exercise: Tell us which IC50 value is on record for CCn1cc(C(NC2CCN(c3ccc(C(F)(F)F)cc3)CC2)c2cccnc2)cn1 (stereo unspecified)
Key: > 100 µM

Exercise: Tell us which IC50 value is on record for O=C(NC1CCN(C(c2cncnc2)c2ccc(Cl)cc2F)CC1)c1cccc(F)c1 (stereo unspecified)
Key: 61.2 µM

Exercise: Tell us which IC50 value is on record for O=C(c1ccccc1)N1CC(NC(c2ccc(C(F)(F)F)cc2)c2cccnc2)C1 (stereo unspecified)
Key: 83.8 µM

Exercise: Tell us which IC50 value is on record for O=C(NC1CCCC1)N1CCN(C(c2ccc(Cl)cc2)c2cncnc2)CC1 (stereo unspecified)
Key: > 100 µM

Exercise: Tell us which IC50 value is on record for CC(C)c1ccc(NC(=O)N2CCC(NC(c3ccc(Cl)cc3)c3cccnc3)CC2)cc1 (stereo unspecified)
Key: 19.7 µM

Exercise: Tell us which IC50 value is on record for CC(=O)N1CCC(NC(c2ccc(C(F)(F)F)cc2)c2cnccn2)CC1 (stereo unspecified)
Key: > 100 µM

Exercise: Tell us which IC50 value is on record for CC(C)c1ccc(NC(=O)NC2CCN(C(c3ccc(Cl)cc3)c3cccnc3)CC2)cc1 (stereo unspecified)
Key: > 100 µM

* * *

Measured pIC50 values are reported for all entries that follow.
# method-summary: DNDI: Cytotoxicity against L-6 rat myoblasts from skeletal muscle cells
# experimental-parameters: L6 rat skeletal muscle myoblast cells, IC50
For clarity, pIC50 is expressed as the negative log10 of concentration in mol/L.

> print(dat)
                                   compound   val
1  CC(C)(C)c1cc(N2CCC(NC(c3ccc(Cl)cc3)c3cccnc3)CC2)[nH]n1 (stereo unspecified)  4.30
2  O=C(c1ccc(C(F)(F)F)cc1)N1CCC(NC(c2ccc(C(F)(F)F)cc2)c2cnccn2)CC1 (stereo unspecified)  4.40
3  O=S(=O)(NC1CCN(C(c2ccc(C(F)(F)F)cc2)c2cnccn2)CC1)c1ccc(Cl)cc1 (stereo unspecified)  4.72
4  O=C(NC(c1ccc(Cl)cc1)c1cccnc1)c1ccc(C(F)(F)F)cc1 (stereo unspecified)  4.20
5  O=S(=O)(NC(c1ccc(C(F)(F)F)cc1)c1cnccn1)c1ccc(C(F)(F)F)cc1 (stereo unspecified)  4.22

Exercise: Tell us which pIC50 value is on record for Fc1cc(Cl)ccc1N1CCC(NC(c2ccc(Cl)cc2)c2cccnc2)CC1 (stereo unspecified)
Key: 4.25

Exercise: Tell us which pIC50 value is on record for CC(C)(C)OC(=O)NC1CCN(C(c2ccc(C(F)(F)F)cc2)c2cccnc2)CC1 (stereo unspecified)
Key: 4.32

Exercise: Tell us which pIC50 value is on record for FC(F)(F)c1ccc(C(c2cncnc2)N2CCN(c3nccs3)CC2)cc1 (stereo unspecified)
Key: 4.17

Exercise: Tell us which pIC50 value is on record for O=C(NC(c1ccc(C(F)(F)F)cc1)c1cnccn1)c1ccc(C(F)(F)F)cc1 (stereo unspecified)
Key: 4.21

Exercise: Tell us which pIC50 value is on record for CC(C)(C)OC(=O)N1CCC(NC(c2ccc(Cl)cc2)c2cccnc2)CC1 (stereo unspecified)
Key: 4.23

Exercise: Tell us which pIC50 value is on record for Cn1cc(CN2CCC(NC(c3ccc(Cl)cc3)c3cccnc3)CC2)c(C(F)(F)F)n1 (stereo unspecified)
Key: 4.29
